// provenance: PubChem BioAssay (NCI)

Measured growth accompanies every entry in the list below.
- Tested on: LOX IMVI melanoma
- measurement protocol: NCI-60 one-dose screen, 48 h (100 = growth as untreated, 0 = no growth, -100 = all killed)
- assay context: 10 µM unless noted
The panel holds about 83,000 compounds, 20% with a hit somewhere; the sample as a whole holds those more often.
Give a bare numeral; the unit % is implied.

CC1=C[C@@H]2c3c(c(O)c(O)c4oc5cc(O)cc(O)c5c(=O)c34)[C@@H](c3cc(O)c(O)c4oc5cc(O)cc(O)c5c(=O)c34)[C@@H]2C(C)(C)C1 :: -98.2
COC(=O)c1cc(Nc2ccc(O)c3c2C(=O)c2c([N+](=O)[O-])ccc(O)c2C3=O)cc(C(=O)OC)c1 :: 59.5
Cc1ccc(OCCn2ccc(=O)n(CCOc3ccc(Cl)cc3C(=O)c3cc(C)cc(C)c3)c2=O)cc1 :: 47

Exam item: Respond only with growth recorded for O=c1c2c(c3ccccc3n1-c1ccccc1)NC(=S)NC2c1ccc(Cl)cc1 (stereo unspecified)
Marked response: 8.65

Exam item: Respond only with growth recorded for O=C1OC(c2ccc(-c3ccccc3)cc2)=C/C1=C/c1c2ccccc2cc2ccccc12
Marked response: 95.8

Exam item: Respond only with growth recorded for Oc1ccc([S+](c2ccc(O)cc2)c2ccc(O)cc2)cc1
Marked response: 107
